Taken from PubChem BioAssay.

EXPERIMENT_DESCRIPTION: A549 lung cancer cell viability effects, profiling panel, resazurin fluorescence, 24 h, PK04 Diversity Set (AID 1171); also: test concentration not given here
MEASUREMENT_CONTEXT: higher = more signal, called active from +8 up or from −8 down
Active and inactive are the calls of the source.
METRIC_NAME: z-score

Below, 8 molecules whose answers are already recorded.
MOLECULE | RESULT
O=C1O[C@H](c2ccccc2)[C@H](c2ccccc2)N2[C@H]1[C@@H](C(=O)N1CCCCCCC1)[C@]1(C(=O)Nc3ccc(C#CCCO)cc31)[C@H]2c1ccccc1OCCO | 0.458 (inactive)
COCCOC(=O)N1C(=O)[C@@]2(c3cc(C#CCC(C(=O)OC)C(=O)OC)ccc31)[C@H](C(=O)N1CCN(c3ncccn3)CC1)[C@H]1C(=O)O[C@H](c3ccccc3)[C@H](c3ccccc3)N1[C@@H]2c1ccccc1OCCO | -0.174 (inactive)
C=CCNC(=O)[C@@H]1[C@H]2C(=O)O[C@H](c3ccccc3)[C@H](c3ccccc3)N2[C@H](c2ccccc2OCCO)[C@@]12C(=O)N(C(=O)OCCOC)c1ccccc12 | -2.03 (inactive)
CCC[C@@H]1C[C@@]1(CCC)[C@@H](NS(=O)(=O)c1cccc2cccnc12)c1ccc(Cl)cc1 | -0.132 (inactive)
O=C(NC1CC1)[C@@H]1c2ccccc2C(=O)N(Cc2ccccc2Cl)[C@H]1c1ccc(CO)cc1 | 1.76 (inactive)
COC(=O)[C@@]1(CCC(=O)OC(C)(C)C)N=C(c2ccc(OCCCO)cc2)O[C@H]1c1ccccc1N=[N+]=[N-] | -2.08 (inactive)
COCCOC(=O)N1C(=O)[C@@]2(c3cc(C#CCNC(N)=O)ccc31)[C@H](C(=O)N1CCN(c3ncccn3)CC1)[C@H]1C(=O)O[C@H](c3ccccc3)[C@H](c3ccccc3)N1[C@@H]2c1ccc(OCCO)cc1 | -0.465 (inactive)
NC(=O)NCC#Cc1ccc2c(c1)[C@]1(C(=O)N2)[C@H](c2ccccc2OCCO)N2[C@H](c3ccccc3)[C@H](c3ccccc3)OC(=O)[C@H]2[C@@H]1C(=O)Nc1nc2ccccc2s1 | 0.659 (inactive)

Record request: z-score value, item O=C1C[C@@](C(=O)NCCN2CCOCC2)(c2ccc([N+](=O)[O-])cc2)[C@@H](c2ccc(CO)cc2)N1CC12CC3CC(CC(C3)C1)C2
-2.06 (inactive)

# lookup: z-score of C=CCOC(=O)[C@H]1[C@@H]2C(=O)O[C@@H](c3ccccc3)[C@@H](c3ccccc3)N2[C@@H](c2ccc(OCCOC(=O)[C@H]3C[C@H]4C(=O)N[C@@H](CCCCN(C)C)C(=O)N4[C@H]3c3ccc(O)cc3)cc2)[C@]12C(=O)Nc1ccc(I)cc12
-0.708 (inactive)

For the molecule CCCC=C(CCC)[C@@H](NC(=O)c1cccs1)c1ccc(C(F)(F)F)cc1 , what z-score is on record?
1.73 (inactive)

# z-score lookup, item CCN(CC)c1ccc(N2CC=CC34O[C@@H]5C=CCCOC(=O)C5[C@H]3C(=O)N(CCCCCCO)[C@@H]4C2=O)cc1 (stereo partly drawn)
1.02 (inactive)

GET /values?readout=z-score&item= NCCCCCCNC(=O)[C@@H]1C[C@@H]2C(=O)NCC(=O)N2[C@@H]1c1ccc(O)cc1
-0.368 (inactive)
